- TARGET OR TEST SYSTEM: T1, Human CD3eg linker (human)
- T1 construct: single-chain construct; also called recombinant human CD3
- T1 chain: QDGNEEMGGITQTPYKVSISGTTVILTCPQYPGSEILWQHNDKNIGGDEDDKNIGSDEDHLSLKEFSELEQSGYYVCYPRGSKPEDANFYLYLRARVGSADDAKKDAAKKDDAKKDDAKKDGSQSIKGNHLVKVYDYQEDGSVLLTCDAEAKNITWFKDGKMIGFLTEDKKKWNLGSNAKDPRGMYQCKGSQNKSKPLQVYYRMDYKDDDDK
- ASSAY: SPR, vs unmutated H183/L072

[
  {
    "BINDER": "dBBDu183H A100fD/dBBDu072L (antibody, name in Kabat numbering, V domains shown) VH: QVQLVESGGGLVQPGRSLRLSCAASGFTFSNAWMHWVRQAPGKGLEWVAQIKDKGNAYAAYYAPSVKGRFTISRDDSKNSIYLQMNSLKTEDTAVYYCHYVHYASASTVLPDFGVDAWGQGTTVTVSS VL: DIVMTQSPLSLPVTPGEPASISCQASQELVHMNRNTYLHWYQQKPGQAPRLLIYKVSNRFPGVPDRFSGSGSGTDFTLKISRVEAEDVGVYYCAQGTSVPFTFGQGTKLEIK",
    "fold change of affinity, fold": 0.4
  },
  {
    "BINDER": "dBBDu183H T100bF/dBBDu072L (antibody, name in Kabat numbering, V domains shown) VH: QVQLVESGGGLVQPGRSLRLSCAASGFTFSNAWMHWVRQAPGKGLEWVAQIKDKGNAYAAYYAPSVKGRFTISRDDSKNSIYLQMNSLKTEDTAVYYCHYVHYASASFVLPAFGVDAWGQGTTVTVSS VL: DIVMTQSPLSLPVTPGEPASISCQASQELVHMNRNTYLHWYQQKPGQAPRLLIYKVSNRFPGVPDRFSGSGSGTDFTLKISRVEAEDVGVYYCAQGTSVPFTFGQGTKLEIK",
    "fold change of affinity, fold": 1.2
  },
  {
    "BINDER": "dBBDu183H L100dR/dBBDu072L (antibody, name in Kabat numbering, V domains shown) VH: QVQLVESGGGLVQPGRSLRLSCAASGFTFSNAWMHWVRQAPGKGLEWVAQIKDKGNAYAAYYAPSVKGRFTISRDDSKNSIYLQMNSLKTEDTAVYYCHYVHYASASTVRPAFGVDAWGQGTTVTVSS VL: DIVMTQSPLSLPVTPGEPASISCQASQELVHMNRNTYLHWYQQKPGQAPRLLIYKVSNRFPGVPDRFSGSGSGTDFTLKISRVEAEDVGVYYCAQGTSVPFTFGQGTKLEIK",
    "fold change of affinity, fold": 1.8
  },
  {
    "BINDER": "dBBDu183H H96W/dBBDu072L (antibody, name in Kabat numbering, V domains shown) VH: QVQLVESGGGLVQPGRSLRLSCAASGFTFSNAWMHWVRQAPGKGLEWVAQIKDKGNAYAAYYAPSVKGRFTISRDDSKNSIYLQMNSLKTEDTAVYYCHYVWYASASTVLPAFGVDAWGQGTTVTVSS VL: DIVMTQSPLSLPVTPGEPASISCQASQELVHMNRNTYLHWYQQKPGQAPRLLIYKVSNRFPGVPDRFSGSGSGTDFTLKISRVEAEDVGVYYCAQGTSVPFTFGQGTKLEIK",
    "fold change of affinity, fold": 0
  },
  {
    "BINDER": "dBBDu183H H96Q/dBBDu072L (antibody, name in Kabat numbering, V domains shown) VH: QVQLVESGGGLVQPGRSLRLSCAASGFTFSNAWMHWVRQAPGKGLEWVAQIKDKGNAYAAYYAPSVKGRFTISRDDSKNSIYLQMNSLKTEDTAVYYCHYVQYASASTVLPAFGVDAWGQGTTVTVSS VL: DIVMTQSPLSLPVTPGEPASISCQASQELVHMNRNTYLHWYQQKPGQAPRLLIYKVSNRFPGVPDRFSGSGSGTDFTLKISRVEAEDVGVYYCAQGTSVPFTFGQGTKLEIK",
    "fold change of affinity, fold": 0.3
  }
]
